Entries annotated with measured ΔΔGI
molecular target: T1, c-erbB-2 ECD with a Ser-Gly-His6 C-terminal fusion (UniProt P04626 23-652); experiment: from SPR (BIAcore) Kd values
T1 construct: extracellular domain; expressed from CHO cells, IMAC purified; coupled to a CM5 chip, adsorbed to polystyrene, or biotinylated and captured on avidin; also called c-erbB-2 extracellular domain; biotinylated c-erbB-2 ECD
Lab book: enter the figure in kcal/mol, no units written.

C6-B47D2 (scFv, C6MH3-B47 with the library D residues of C6MH3-D2) scFv: QVQLLQSGAELKKPGESLKISCKGSGYSFTSYWIAWVRQMPGKGLEYMGLIYPGDSDTKYSPSFQGQVTISVDKSVSTAYLQWSSLKPSDSAVYFCARHDVGYCTDRSCAKWPEWLGVWGQGTLVTVSSGGGGSGGGGSGGGGSQSVLTQPPSVSAAPGQKVTISCSGSSSNIGNNYVSWYQQLPGTAPKLLIYGHTNRPAGVPDRFSGSKSGTSASLAISGFRSEDEADYYCASWDYTLSGWVFGGGTKLTVLG ... 0.62

Record C6-12L1 (scFv) QVQLLQSGAELKKPGESLKISCKGSGYSFTSYWIAWVRQMPGKGLEYMGLIYPGDSDTKYSPSFQGQVTISVDKSVSTAYLQWSSLKPSDSAVYFCARHDVGYCSSSNCAKWPEYFQHWGQGTLVTVSSGGGGSGGGGSGGGGSQSVLTQPPSVSGAPGQWVTISCSGSSSNIGNNYVSWYQQLPGTAPKLLIYDNNKRPSGVPDRFSGSQSGTSASLAISGLRSEDEADYYCAAWDYSRSGWVFGGGTKLTVLG . Reported ΔΔGI: -0.18
